Documented IC50 across a set of compounds
# measured on: human orexin-2 receptor (Homo sapiens (Human))
# Sequence (O43614 whole entry): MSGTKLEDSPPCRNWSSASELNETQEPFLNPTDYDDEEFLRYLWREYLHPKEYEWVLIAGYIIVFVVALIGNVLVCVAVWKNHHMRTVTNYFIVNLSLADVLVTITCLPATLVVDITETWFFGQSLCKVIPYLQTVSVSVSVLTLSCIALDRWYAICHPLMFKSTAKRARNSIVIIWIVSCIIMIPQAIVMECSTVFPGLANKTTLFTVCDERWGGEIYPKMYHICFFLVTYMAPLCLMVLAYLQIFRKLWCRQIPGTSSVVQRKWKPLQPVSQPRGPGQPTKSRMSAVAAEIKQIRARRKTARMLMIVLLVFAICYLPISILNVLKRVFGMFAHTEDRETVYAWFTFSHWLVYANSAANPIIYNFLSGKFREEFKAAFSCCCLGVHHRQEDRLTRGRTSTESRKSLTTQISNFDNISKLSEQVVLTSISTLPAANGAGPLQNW
# experiment summary: Intracellular calcium measurement (FLIPR), CHO cells expressing human orexin-2 receptor, 3 nM orexin-A
# Type: cell-based
# assay setup: CHO cells expressing human orexin-2 receptor, FLIPR, 3 nM orexin-A; geometric mean if determined several times; read-out: IC50 OX2
# Protocol: In Vitro Assay: Intracellular Calcium Measurements: […] Within the Fluorescent Imaging Plate Reader (FLIPR Tetra, Molecular Devices), antagonists are added to the plate in a volume of 10 μL/well, incubated for 120 min and finally 10 μL/well of agonist is added. Fluorescence is measured for each well at 1 second intervals, and the height of each fluorescence peak is compared to the height of the fluorescence peak induced by 3 nM orexin-A with vehicle in place of antagonist. […]
property label: IC50 (nM)

>>> meas_value("Cc1cccc(-c2sc(C)nc2C(=O)N2CCC[C@H]2c2nc(-c3cccc(Cl)c3C)no2)c1")
118
>>> meas_value("COc1ccc(-n2nccn2)c(C(=O)N2CCC[C@H]2c2nc(-c3cccc(Cl)c3C)no2)c1")
8
>>> meas_value("CCOc1ncccc1-c1nnc([C@@H]2CCCN2C(=O)c2ccc(C)cc2-n2nccn2)[nH]1")
94
>>> meas_value("Cc1ccc(-n2nccn2)c(C(=O)N2CCC[C@H]2c2noc(-c3ccccc3)n2)c1")
207
